- System: Trypanosoma cruzi
- testDetails: Inhibition of Trypanosoma cruzi glucokinase at 20 uM using D-glucose as substrate after 1 hr in presence of ATP and […] by resazurin dye based G6PDH-diaphorase coupled fluorescence assay relative to control
propertyLabel: inhibition (%)

[[record]]
molecule = "O=C1NC(=O)C(=Cc2ccc(N3CCOCC3)cc2)C(=O)N1"
propertylabel = "inhibition"
valuemeasured = 49.4

[[record]]
molecule = "O=[N+]([O-])C1=Cc2c(ccc3ccccc23)O[C@H]1c1ccc2c(c1)OCO2"
propertylabel = "inhibition"
valuemeasured = 68.4

[[record]]
molecule = "COc1ccc(C(=O)Nc2sc3c(c2C(N)=O)CCCCC3)cc1OC"
propertylabel = "inhibition"
valuemeasured = 42.7

[[record]]
molecule = "Cc1ccc(-n2nc(C)c3c2OC(N)=C(C#N)C3c2ccoc2)cc1 (stereo not given)"
propertylabel = "inhibition"
valuemeasured = 46.3

[[record]]
molecule = "CCOc1ccc([C@@H]2Oc3c(Cl)cc(Cl)cc3C=C2[N+](=O)[O-])cc1OCC"
propertylabel = "inhibition"
valuemeasured = 58.7

